# studySystem: Retinoic acid receptor RXR-alpha (Homo sapiens, UniProt P19793)
# Sequence (P19793 whole entry): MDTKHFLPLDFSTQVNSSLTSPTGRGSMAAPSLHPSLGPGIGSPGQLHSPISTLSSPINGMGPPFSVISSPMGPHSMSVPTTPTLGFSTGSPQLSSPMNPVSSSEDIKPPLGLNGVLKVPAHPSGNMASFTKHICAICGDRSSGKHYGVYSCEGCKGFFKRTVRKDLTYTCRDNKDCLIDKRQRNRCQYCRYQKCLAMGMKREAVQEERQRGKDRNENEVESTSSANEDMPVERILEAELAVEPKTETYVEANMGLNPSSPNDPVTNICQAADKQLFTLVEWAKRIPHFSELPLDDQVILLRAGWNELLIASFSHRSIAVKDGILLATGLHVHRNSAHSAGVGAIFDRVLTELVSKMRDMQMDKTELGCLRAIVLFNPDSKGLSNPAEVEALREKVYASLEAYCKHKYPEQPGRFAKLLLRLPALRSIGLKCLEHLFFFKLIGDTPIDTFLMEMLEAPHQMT
# testDescription: Antagonistic activity towards retinoid X receptor-alpha
# Format: functional
measureName: pKi
On this scale, pKi is minus log10 of a concentration expressed in M (mol/L).

IN: Record request: pKi value, item `CN1c2cc3c(cc2N=C(c2ccc(C(=O)O)cc2)c2ccc4ccccc4c21)C(C)(C)CCC3(C)C`
OUT: 5.42

###

# studySystem: Retinoic acid receptor RXR-gamma (Homo sapiens)
# Sequence (P48443 whole entry): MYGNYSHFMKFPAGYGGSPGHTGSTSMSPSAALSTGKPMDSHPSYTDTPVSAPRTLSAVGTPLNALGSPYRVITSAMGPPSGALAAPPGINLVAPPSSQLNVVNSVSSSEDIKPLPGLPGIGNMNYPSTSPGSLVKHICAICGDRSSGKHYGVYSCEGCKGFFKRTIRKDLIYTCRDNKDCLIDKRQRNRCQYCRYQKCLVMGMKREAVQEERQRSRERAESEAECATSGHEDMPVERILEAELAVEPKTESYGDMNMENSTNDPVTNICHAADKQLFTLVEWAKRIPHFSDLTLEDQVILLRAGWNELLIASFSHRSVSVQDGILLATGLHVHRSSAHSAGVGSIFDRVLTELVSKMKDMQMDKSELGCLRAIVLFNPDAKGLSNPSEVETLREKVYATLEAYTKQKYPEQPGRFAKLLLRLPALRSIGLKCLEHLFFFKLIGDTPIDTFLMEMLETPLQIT
# testDescription: Antagonistic activity towards retinoid X receptor-gamma
# Assay type: functional
measureName: Ki (nM)
Kindly provide the numeric value in nM only, without the unit symbol.

IN: Record request: Ki value, item `CN1c2cc3c(cc2N=C(c2ccc(C(=O)O)cc2)c2ccc4ccccc4c21)C(C)(C)CCC3(C)C`
OUT: 1500

###

# studySystem: Retinoic acid receptor RXR-beta (Homo sapiens, UniProt P28702)
# Sequence (P28702 whole entry): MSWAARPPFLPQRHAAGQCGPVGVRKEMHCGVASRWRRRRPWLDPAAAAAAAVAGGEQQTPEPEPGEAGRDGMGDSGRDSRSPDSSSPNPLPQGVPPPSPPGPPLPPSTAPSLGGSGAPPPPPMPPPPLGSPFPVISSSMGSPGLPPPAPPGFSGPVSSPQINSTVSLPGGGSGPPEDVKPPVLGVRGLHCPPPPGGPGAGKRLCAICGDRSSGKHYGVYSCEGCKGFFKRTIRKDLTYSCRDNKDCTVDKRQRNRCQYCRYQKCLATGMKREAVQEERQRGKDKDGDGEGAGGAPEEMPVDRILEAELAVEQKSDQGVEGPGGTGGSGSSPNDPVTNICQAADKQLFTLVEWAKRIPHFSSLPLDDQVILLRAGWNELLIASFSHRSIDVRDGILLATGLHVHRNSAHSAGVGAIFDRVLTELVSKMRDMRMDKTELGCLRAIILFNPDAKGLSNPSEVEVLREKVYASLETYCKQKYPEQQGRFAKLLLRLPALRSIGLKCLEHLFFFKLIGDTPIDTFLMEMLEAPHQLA
# testDescription: Synergistic activity towards retinoid X receptor-beta
# Lookup of reported Ki keyed by entry
Kindly provide the numeric value in nM only, without the unit symbol.

IN: Record request: Ki value, item `CC1(C)CCC(C)(C)c2cc3c(cc21)Cc1ccccc1N=C3c1ccc(C(=O)O)cc1`
OUT: 790

IN: Check `CC1(C)CCC(C)(C)c2cc3c(cc21)Sc1ccccc1N=C3c1ccc(C(=O)O)cc1` too.
OUT: 400

IN: Check `CC1(C)CCC(C)(C)c2cc3c(cc21)Oc1ccccc1N=C3c1ccc(C(=O)O)cc1` too.
OUT: 1200

Please look at the following molecule next.
IN: Record request: Ki value, item `CN1c2ccccc2N=C(c2ccc(C(=O)O)cc2)c2cc3c(cc21)C(C)(C)CCC3(C)C`
OUT: 640

###

# studySystem: Retinoic acid receptor RXR-alpha (Homo sapiens, UniProt P19793)
# testDescription: Synergistic activity towards retinoid X receptor-alpha
measureName: pKi
On this scale, pKi is minus log10 of a concentration expressed in M (mol/L).

Completed entries (count: 3):
IN: Record request: pKi value, item `CN1c2ccccc2N=C(c2ccc(C(=O)O)cc2)c2cc3c(cc21)C(C)(C)CCC3(C)C`
OUT: 5.72

IN: Check `CC1(C)CCC(C)(C)c2cc3c(cc21)Sc1ccccc1N=C3c1ccc(C(=O)O)cc1` too.
OUT: 6.05

IN: Check `CC1(C)CCC(C)(C)c2cc3c(cc21)Cc1ccccc1N=C3c1ccc(C(=O)O)cc1` too.
OUT: 5.74

Please look at the following compound next.
IN: Record request: pKi value, item `CC1(C)CCC(C)(C)c2cc3c(cc21)Oc1ccccc1N=C3c1ccc(C(=O)O)cc1`
OUT: 5.42

###

# studySystem: Retinoic acid receptor RXR-gamma (Homo sapiens)
# testDescription: Synergistic activity towards retinoid X receptor-gamma
measureName: pKi
On this scale, pKi is minus log10 of a concentration expressed in M (mol/L).

IN: Record request: pKi value, item `CN1c2ccccc2N=C(c2ccc(C(=O)O)cc2)c2cc3c(cc21)C(C)(C)CCC3(C)C`
OUT: 6.00

IN: Check `CC1(C)CCC(C)(C)c2cc3c(cc21)Oc1ccccc1N=C3c1ccc(C(=O)O)cc1` too.
OUT: 5.68

IN: Check `CC1(C)CCC(C)(C)c2cc3c(cc21)Cc1ccccc1N=C3c1ccc(C(=O)O)cc1` too.
OUT: 6.00

Please look at the following molecule next.
IN: Record request: pKi value, item `CC1(C)CCC(C)(C)c2cc3c(cc21)Sc1ccccc1N=C3c1ccc(C(=O)O)cc1`
OUT: 6.21

###

# studySystem: Retinoic acid receptor alpha (Homo sapiens)
# Sequence (P10276 whole entry): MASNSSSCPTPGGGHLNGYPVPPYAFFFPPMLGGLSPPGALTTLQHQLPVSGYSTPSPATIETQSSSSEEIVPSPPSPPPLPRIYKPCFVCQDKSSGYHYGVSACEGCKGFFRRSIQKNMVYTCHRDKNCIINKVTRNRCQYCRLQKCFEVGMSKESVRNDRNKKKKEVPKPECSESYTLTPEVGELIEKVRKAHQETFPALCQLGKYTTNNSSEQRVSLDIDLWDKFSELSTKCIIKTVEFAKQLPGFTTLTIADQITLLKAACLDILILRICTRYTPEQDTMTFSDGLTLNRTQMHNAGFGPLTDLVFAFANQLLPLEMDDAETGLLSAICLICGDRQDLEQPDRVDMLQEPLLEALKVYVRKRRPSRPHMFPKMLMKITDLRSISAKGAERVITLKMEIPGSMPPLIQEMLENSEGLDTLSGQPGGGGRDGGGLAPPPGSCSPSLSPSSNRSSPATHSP
# testDescription: Antagonistic activity towards retinoic acid receptor-alpha
# Type: functional
# Lookup of reported Ki keyed by entry
Kindly provide the numeric value in nM only, without the unit symbol.

IN: Record request: Ki value, item `CN1c2cc3c(cc2N=C(c2ccc(C(=O)O)cc2)c2ccccc21)C(C)(C)CCC3(C)C`
OUT: 1400

Continuing:
IN: Record request: Ki value, item `CN1c2cc3c(cc2N=C(c2ccc(C(=O)O)cc2)c2ccc4ccccc4c21)C(C)(C)CCC3(C)C`
OUT: 1300
